Recorded values, source PubChem BioAssay (EPA / NIEHS).

- Read-out: Interleukin-1 alpha (IL1a), IL1A (gene 3552)
- test: BSK_BE3C_IL1a: BioMAP Diversity Plus: BE3C Assay for Interleukin-1 alpha (IL1a) Biomarker Activity (AID 2283016)
- condition.details: primary human bronchial epithelial cells; actives raise or lower the signal
Activity calls are given as the source filed them. The calls were made as follows: active = hit-call score of the fitted dose curve at least 0.9, where 1 is the maximum; inactive = score below 0.9.
Outcomes: active, inactive

[
  {
    "compound": "COC(=O)CCC(=O)OC",
    "category": "inactive"
  },
  {
    "compound": "OCC(O)CO",
    "category": "inactive"
  },
  {
    "compound": "CCC(C)N(C)C(=O)c1cc2ccccc2c(-c2ccccc2Cl)n1 (centres undefined)",
    "category": "inactive"
  },
  {
    "compound": "CC(=O)O[C@]1(C(C)=O)CC[C@H]2[C@@H]3C=C(Cl)C4=CC(=O)[C@@H]5C[C@@H]5[C@]4(C)[C@H]3CC[C@@]21C",
    "category": "active"
  }
]

----------
- Read-out: Cytochrome P450 (CYP1A2), CYP1A2 (gene 1544)
- test: LTEA_HepaRG_CYP1A2: Life Technologies and Expression Analysis (LTEA) Assay for Cytochrome P450 (CYP1A2) using HepaRG (AID 2283479);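 as to AC50: TaqMan qRT-PCR transcript level normalized to ACTB GAPDH and POLR2A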
- condition.details: mRNA level, 48 h; actives raise or lower the signal
Calls of active or inactive are those of the source. Rule for the calls: active = hit-call score of the fitted dose curve at least 0.9, where 1 is the maximum; inactive = score below 0.9.

[
  {
    "molecule": "OCC(O)CO",
    "AC50": "inactive"
  },
  {
    "molecule": "CC(=O)O",
    "AC50": "inactive"
  },
  {
    "molecule": "CCCC[C@H]1CN(CC2CCOCC2)C(=O)OC12CCN(C1(C)CCN(C(=O)c3c(C)ncnc3C)CC1)CC2",
    "AC50": "inactive"
  },
  {
    "molecule": "CCCCCCCC(=O)OC",
    "AC50": "inactive"
  },
  {
    "molecule": "CC(=O)OC1CC(C)OC(C)O1 (stereo unspecified)",
    "AC50": "50 µM (active)"
  },
  {
    "molecule": "O=C(O)CN(CC(=O)O)CC(=O)O",
    "AC50": "45.8 µM (active)"
  },
  {
    "molecule": "CC(C)OC(=O)C(C)(C)Oc1ccc(C(=O)c2ccc(Cl)cc2)cc1",
    "AC50": "28.1 µM (active)"
  },
  {
    "molecule": "Cc1occc(=O)c1O",
    "AC50": "inactive"
  },
  {
    "molecule": "CC(=O)CC(c1ccccc1)c1c(O)c2ccccc2oc1=O (stereo unspecified)",
    "AC50": "inactive"
  },
  {
    "molecule": "CCc1cc(C2=C(C(=O)O)N(c3ccccc3C(F)(F)F)S(=O)(=O)c3ccccc32)cc2c1OCO2",
    "AC50": "inactive"
  },
  {
    "molecule": "OCC(CO)n1cnc(-c2ccc(F)cc2)c1-c1ccnc(Oc2ccccc2)n1",
    "AC50": "inactive"
  },
  {
    "molecule": "Cc1ccc(-c2cc(C(F)(F)F)nn2-c2ccc(S(N)(=O)=O)cc2)cc1",
    "AC50": "15.8 µM (active)"
  },
  {
    "molecule": "c1ccc2occc2c1",
    "AC50": "inactive"
  },
  {
    "molecule": "O=NO",
    "AC50": "inactive"
  },
  {
    "molecule": "CC(C)c1cccc(C(C)C)c1NC(=O)NS(=O)(=O)c1cc(C(C)(C)O)co1",
    "AC50": "inactive"
  },
  {
    "molecule": "CCCCCCC(C=O)=Cc1ccccc1",
    "AC50": "inactive"
  }
]

----------
- Read-out: Interleukin-6 (IL6), IL6 (gene 3569)
- test: BSK_CASM3C_IL6: BioMAP Diversity Plus: CASM3C Assay for Interleukin-6 (IL6) Biomarker Activity for (AID 2283040)
- condition.details: primary human coronary artery smooth muscle cells; actives raise or lower the signal
Active and inactive are the calls of the source. How the source made its calls: active means hit-call score of the fitted dose curve at least 0.9, where 1 is the maximum; inactive means score below 0.9.
Outcomes: 1 (yes) for active, 0 (no) for inactive

[
  {
    "compound": "CCCCCCC(C=O)=Cc1ccccc1",
    "category": "0 (no)"
  },
  {
    "compound": "COc1ccc(C(=O)Nc2nc3ccccc3c(NCc3ccccc3)c2C#N)cc1",
    "category": "0 (no)"
  },
  {
    "compound": "NC1CCCCC1",
    "category": "0 (no)"
  },
  {
    "compound": "Cc1cn([C@H]2C=C[C@@H](CO)O2)c(=O)[nH]c1=O",
    "category": "0 (no)"
  },
  {
    "compound": "c1ccc2occc2c1",
    "category": "0 (no)"
  },
  {
    "compound": "CC(=O)O",
    "category": "0 (no)"
  },
  {
    "compound": "CCOCCOCCO",
    "category": "0 (no)"
  },
  {
    "compound": "O=C(O)CC(O)(CC(=O)O)C(=O)O",
    "category": "0 (no)"
  },
  {
    "compound": "O=C(N[C@@H](c1ccccc1)[C@@H]1CCCCN1)c1cccc(C(F)(F)F)c1Cl",
    "category": "0 (no)"
  },
  {
    "compound": "CCCCCCCCCC[N+](C)(C)[O-]",
    "category": "0 (no)"
  },
  {
    "compound": "CCN(CC)CCOc1ccc(C(=C(Cl)c2ccccc2)c2ccccc2)cc1",
    "category": "1 (yes)"
  },
  {
    "compound": "N[C@@H](Cc1c[nH]c2ccccc12)C(=O)O",
    "category": "0 (no)"
  },
  {
    "compound": "O=NO",
    "category": "0 (no)"
  },
  {
    "compound": "CC(C)c1cccc(C(C)C)c1NC(=O)NS(=O)(=O)c1cc(C(C)(C)O)co1",
    "category": "0 (no)"
  },
  {
    "compound": "CCCC[C@H]1CN(CC2CCOCC2)C(=O)OC12CCN(C1(C)CCN(C(=O)c3c(C)ncnc3C)CC1)CC2",
    "category": "0 (no)"
  },
  {
    "compound": "CC(N)=O",
    "category": "0 (no)"
  },
  {
    "compound": "CCCCC(CC)COC(=O)CCCCCCCC(=O)OCC(CC)CCCC (stereo not drawn)",
    "category": "0 (no)"
  },
  {
    "compound": "NCCOCCOCCN",
    "category": "0 (no)"
  },
  {
    "compound": "O=C(O)c1[nH]n(-c2ccc(S(=O)(=O)O)cc2)c(=O)c1N=Nc1ccc(S(=O)(=O)O)cc1",
    "category": "0 (no)"
  },
  {
    "compound": "COC(=O)[C@H]1[C@H]2C[C@@H]3c4[nH]c5cc(OC)ccc5c4CCN3C[C@H]2C[C@@H](OC(=O)c2cc(OC)c(OC)c(OC)c2)[C@@H]1OC",
    "category": "0 (no)"
  },
  {
    "compound": "COc1ccc(OC(F)(F)F)cc1CN[C@H]1CCCN[C@H]1c1ccccc1",
    "category": "0 (no)"
  },
  {
    "compound": "CC(C)(O)c1ccc(CNC(=O)c2cccnc2Oc2ccc(F)cc2)cc1",
    "category": "0 (no)"
  },
  {
    "compound": "C=CCCCCCCCCCCCC",
    "category": "0 (no)"
  },
  {
    "compound": "O=C1OC(c2ccc(O)cc2)(c2ccc(O)cc2)c2ccccc21",
    "category": "0 (no)"
  },
  {
    "compound": "COC(=O)CCCC(=O)OC",
    "category": "0 (no)"
  },
  {
    "compound": "CCCCCCCC(=O)OC",
    "category": "0 (no)"
  },
  {
    "compound": "OCC(CO)n1cnc(-c2ccc(F)cc2)c1-c1ccnc(Oc2ccccc2)n1",
    "category": "1 (yes)"
  },
  {
    "compound": "Cn1cnc2c1c(=O)[nH]c(=O)n2C",
    "category": "0 (no)"
  },
  {
    "compound": "Nc1nc(Cl)nc2c1ncn2[C@H]1C[C@H](O)[C@@H](CO)O1",
    "category": "0 (no)"
  },
  {
    "compound": "CC(COCC(C)OC(=O)c1ccccc1)OC(=O)c1ccccc1 (stereo not drawn)",
    "category": "0 (no)"
  },
  {
    "compound": "CCCCCCCCCCCCCCOS(=O)(=O)O",
    "category": "0 (no)"
  },
  {
    "compound": "NC=O",
    "category": "0 (no)"
  },
  {
    "compound": "O=C1CCCCC1",
    "category": "0 (no)"
  },
  {
    "compound": "CC(C)COC(=O)CCCCC(=O)OCC(C)C",
    "category": "0 (no)"
  },
  {
    "compound": "CC(=O)S[C@H](C(=O)N[C@H]1Cc2ccccc2[C@H]2CCC[C@@H](C(=O)O)N2C1=O)C(C)C",
    "category": "0 (no)"
  },
  {
    "compound": "Cc1ccc(-c2cc(C(F)(F)F)nn2-c2ccc(S(N)(=O)=O)cc2)cc1",
    "category": "1 (yes)"
  },
  {
    "compound": "CCCCOC(=O)CCCCC(=O)OCCCC",
    "category": "0 (no)"
  },
  {
    "compound": "C/C=C/C=C/C(=O)O",
    "category": "0 (no)"
  },
  {
    "compound": "Cc1ccc(C(C)(C)C)c(O)c1",
    "category": "0 (no)"
  },
  {
    "compound": "CC1(C)C(=O)NC(=O)N1CO",
    "category": "0 (no)"
  },
  {
    "compound": "O=C(Oc1ccccc1)c1cccc(C(=O)Oc2ccccc2)c1",
    "category": "0 (no)"
  },
  {
    "compound": "Cc1cc(Cc2ccc(N)c(C)c2)ccc1N",
    "category": "0 (no)"
  },
  {
    "compound": "Cc1c(C)c2c(c(C)c1O)CCC(C)(COc1ccc(CC3SC(=O)NC3=O)cc1)O2 (stereo not drawn)",
    "category": "0 (no)"
  },
  {
    "compound": "CCCCC(CC)COP(=O)(OCC(CC)CCCC)OCC(CC)CCCC (stereo not drawn)",
    "category": "0 (no)"
  },
  {
    "compound": "CC(=O)OCC(COC(C)=O)OC(C)=O",
    "category": "0 (no)"
  },
  {
    "compound": "CCCCc1nc2cccnc2n1Cc1ccc(-c2ccccc2-c2nnn[nH]2)cc1",
    "category": "0 (no)"
  },
  {
    "compound": "CN(C)CCCN(C)CCCN(C)C",
    "category": "0 (no)"
  },
  {
    "compound": "CCc1cc(C2=C(C(=O)O)N(c3ccccc3C(F)(F)F)S(=O)(=O)c3ccccc32)cc2c1OCO2",
    "category": "0 (no)"
  },
  {
    "compound": "CN(C)CCCN1c2ccccc2Sc2ccc(Cl)cc21",
    "category": "0 (no)"
  },
  {
    "compound": "CCc1nc(N)nc(N)c1-c1ccc(Cl)cc1",
    "category": "0 (no)"
  },
  {
    "compound": "O=C1NC(=O)C(c2ccccc2)(c2ccccc2)N1",
    "category": "0 (no)"
  },
  {
    "compound": "S=c1[nH]c2ccccc2s1",
    "category": "0 (no)"
  },
  {
    "compound": "O=[Si]=O",
    "category": "0 (no)"
  }
]
